Test system: KU1919.1
Test: Cell Titer Glo (CTG) proliferation assay, KU1919
Type: cell-based
Conditions: Homo sapiens, KU-19-19; KU1919.1 cells, 72.0 hrs.; read-out: AVE CTG Proliferation KU1919.1 72.0 hrs.
Here, each record is paired with measured IC50 data.

For orientation, consider the following solved cases.
INSERT INTO results (compound, assayed_system, recorded_result) VALUES
  ('CCc1cccc(-c2cnc(C(=O)NCCOCCNCC[C@H](NC(=O)C3(N)CCN(c4ncnc5[nH]ccc45)CC3)c3ccc(Cl)cc3)c(NC(C)=O)c2)c1 [Compound I-184]', 'KU1919.1', '5 to 10 µM'),
  ('NC1(C(=O)N[C@@H](CCN2CCN(C(=O)CN3CCC(CN4CCN(C(=O)[C@H](NC(=O)c5cccc(C6CCCN(C(=O)C7CC7)C6)c5)C5CCCCC5)CC4)CC3)CC2)c2ccc(Cl)cc2)CCN(c2ncnc3[nH]ccc23)CC1 (stereo partly shown) [Compound I-247]', 'KU1919.1', '1 to 5 µM'),
  ('N[C@@H](C(=O)N1CCC(OC2CCN(CC(=O)N3CCN(CC[C@H](NC(=O)C4(N)CCN(c5ncnc6[nH]ccc56)CC4)c4ccc(Cl)cc4)CC3)CC2)CC1)C1CCCCC1 [Compound I-235]', 'KU1919.1', '> 10 µM');

// next entry
Look up and report measured IC50 for this entry: C[C@@H]1C[C@@H](O)c2ncnc(N3CCN(C(=O)[C@H](CNCCNC(=O)CNC45CCC(CN6CCN(C(=O)[C@H](NC(=O)c7cccc(C8CCCN(C(=O)CNCc9ccc(F)cc9F)C8)c7)C7CCCCC7)CC6)(CC4)OC5)c4ccc(Cl)cc4)CC3)c21 (stereo partly shown) [Compound I-203]
5 to 10 µM

====

Tested on: KU1919.1
Test: Cell Titer Glo (CTG) proliferation assay, KU1919
Type: cell-based
Conditions: Homo sapiens, KU-19-19; KU1919.1 cells, 72.0 hrs.; read-out: AVE CTG Proliferation KU1919.1 72.0 hrs.
pIC50: −log10 of the molar value.
MEASUREMENT_LABEL: pIC50

INSERT INTO results (molecule, recorded_result) VALUES
  ('NC1(C(=O)N[C@@H](CCNS(=O)(=O)CCCCNC(=O)[C@H](NC(=O)c2cccc(C3CN(C(=O)C4CC4)C3)c2)C2CCCCC2)c2ccc(Cl)cc2)CCN(c2ncnc3[nH]ccc23)CC1', '< 5.00');

Then this molecule:
Fill in pIC50 for C[C@@H]1C[C@@H](O)c2ncnc(N3CCN(C(=O)[C@H](CCN4CCC(CN5CCN(C(=O)[C@H](NC(=O)c6cccc(C7CCCN(C(=O)CNCc8ccc(F)cc8F)C7)c6)C6CCCCC6)CC5)CC4)c4ccc(Cl)cc4)CC3)c21 (some centres unmarked) tested with KU1919.1.
6.00 to 6.30

====

Tested on: KU1919.1
Assay: Cell Titer Glo (CTG) proliferation assay, KU1919
Format: cell-based
Conditions: Homo sapiens, KU-19-19; KU1919.1 cells, 72.0 hrs.; read-out: AVE CTG Proliferation KU1919.1 72.0 hrs.
Listed here: items and their measured IC50.

// below: answered compounds
INSERT INTO results (compound, measurement_label, recorded_result) VALUES
  ('C[C@@H]1C[C@@H](O)c2ncnc(N3CCN(C(=O)C(CN4CCC(CN5CCN(C(=O)[C@H](NC(=O)c6cccc([C@H]7CCCN(C(=O)C8CC8)C7)c6F)C6CCCCC6)CC5)CC4)c4ccc(Cl)cc4)CC3)c21 (stereo partly shown)', 'IC50', '< 500 nM'),
  ('NC1(C(=O)N[C@@H](CCN2CCN(C(=O)C34CCC(CN5CCN(C(=O)c6cccc(C7CCCN(C(=O)C8CC8)C7)c6)CC5)(CC3)OC4)CC2)c2ccc(Cl)cc2)CCN(c2ncnc3[nH]ccc23)CC1 (stereo partly shown)', 'IC50', '1000 to 5000 nM');

Supply IC50 measured with KU1919.1 for NC1(C(=O)N[C@@H](CCN2CCC(OC3CCN(C(=O)c4cccc(C5CCCN(C(=O)C6CC6)C5)c4F)CC3)CC2)c2ccc(Cl)cc2)CCN(c2ncnc3[nH]ccc23)CC1 (stereo partly shown) .
1000 to 5000 nM

Look up KU1919.1 data: IC50 of C=CC(=O)N1CCN(c2ccc(CCC(=O)N3CCN(CC4CCN(CC[C@H](NC(=O)C5(N)CCN(c6ncnc7[nH]ccc67)CC5)c5ccc(Cl)cc5)CC4)CC3)o2)C(=O)C1 , then report it.
1000 to 5000 nM

Please respond with reported IC50 (system KU1919.1) for CCc1cccc(-c2cnc(C(=O)NCCOCCNCC[C@H](NC(=O)C3(N)CCN(c4ncnc5[nH]ccc45)CC3)c3ccc(Cl)cc3)c(N)c2)c1 .
5000 to 10000 nM

// fetch IC50 for NC1(C(=O)N[C@@H](CCN2CCC(OC3CCN(C(=O)[C@H](NC(=O)c4cccc(C5CCCN(C(=O)CNC6CC6)C5)c4F)C4CCCCC4)CC3)CC2)c2ccc(Cl)cc2)CCN(c2ncnc3[nH]ccc23)CC1 (stereo partly shown) ; system: KU1919.1
1000 to 5000 nM

State IC50 (KU1919.1) of C[C@@H]1C[C@@H](O)c2ncnc(N3CCN(C(=O)C(CN4CCC(CN5CCN(C(=O)[C@H](NC(=O)c6cccc([C@H]7CCCN(C(=O)CNCc8ccc(F)cc8F)C7)c6)C6CCCCC6)CC5)CC4)c4ccc(Cl)cc4)CC3)c21 (stereo partly shown) .
500 to 1000 nM

GET IC50 | system: KU1919.1 | item: NC1(C(=O)N[C@@H](CCOCCCCCNC(=O)[C@H](NC(=O)c2cccc(C3CCCN(C(=O)CNC4CC4)C3)c2)C2CCCCC2)c2ccc(Cl)cc2)CCN(c2ncnc3[nH]ccc23)CC1 (stereo partly shown)
1000 to 5000 nM

Give reported IC50 for C[C@@H]1C[C@@H](O)c2ncnc(N3CCN(C(=O)[C@H](CN4CCC(OC5CCN(C(=O)[C@H](NC(=O)OC(C)(C)C)C6CCCCC6)CC5)CC4)c4ccc(Cl)cc4)CC3)c21 (KU1919.1)
1000 to 5000 nM

Find IC50 for NC1(C(=O)N[C@@H](CCNC(=O)[C@H](NC(=O)C2CC2)C2CCCCC2)c2ccc(Cl)cc2)CCN(c2ncnc3[nH]ccc23)CC1 on KU1919.1 and write it down.
5000 to 10000 nM

Please report the measured IC50 for NC1(C(=O)N[C@@H](CCN2CCN(C(=O)CN3CCC(OC4CCN(C(=O)[C@H](NC(=O)c5cccc(C6CCCN(C(=O)CNCc7ccc(F)cc7F)C6)c5)C5CCCCC5)CC4)CC3)CC2)c2ccc(Cl)cc2)CCN(c2ncnc3[nH]ccc23)CC1 (stereo partly shown) tested on KU1919.1.
500 to 1000 nM

Jot down IC50 (KU1919.1) of CCc1cccc(-c2cnc(C(=O)NCCOCCNCC[C@H](NC(=O)C3(N)CCN(c4ncnc5[nH]ccc45)CC3)c3ccc(Cl)cc3)c(NC(=O)CN3CCOCC3)c2)c1 .
1000 to 5000 nM

Look up and report IC50, with KU1919.1 as system, for CCOc1cc(OC)ccc1CNCC(=O)N1CCC[C@H](c2cccc(C(=O)N[C@@H](C(=O)N3CCN(CC4CCN(CC(C(=O)N5CCN(c6ncnc7c6[C@H](C)C[C@H]7O)CC5)c5ccc(Cl)cc5)CC4)CC3)C3CCCCC3)c2)C1 (stereo partly shown)
500 to 1000 nM

====

System: KU1919.1
Assay: Cell Titer Glo (CTG) proliferation assay, KU1919
Type: cell-based
Settings: Homo sapiens, KU-19-19; KU1919.1 cells, 72.0 hrs.; read-out: AVE CTG Proliferation KU1919.1 72.0 hrs.
pIC50: −log10 of the molar value.
MEASUREMENT_LABEL: pIC50

INSERT INTO measurements (compound, recorded_result) VALUES
  ('NC1(C(=O)N[C@@H](CCN2CCC(OC3CCN(C(=O)c4cccc(C5CCCN(C(=O)CNCc6ccc(F)cc6F)C5)c4)CC3)CC2)c2ccc(Cl)cc2)CCN(c2ncnc3[nH]ccc23)CC1 (stereo partly drawn)', '5.30 to 6.00'),
  ('CCc1cccc(-c2cc(F)c(C(=O)N3CCC(OC4CCN(CC[C@H](NC(=O)C5(N)CCN(c6ncnc7[nH]ccc67)CC5)c5ccc(Cl)cc5)CC4)CC3)c(F)c2)c1', '5.30 to 6.00'),
  ('CCc1cccc(-c2cnc(C(=O)N3CCC(OC4CCN(CC(=O)NCCNC[C@@H](C(=O)N5CCN(c6ncnc7c6[C@H](C)C[C@H]7O)CC5)c5ccc(Cl)cc5)CC4)CC3)c(NC(C)=O)c2)c1', '5.30 to 6.00');

Read the entry C[C@@H]1C[C@@H](O)c2ncnc(N3CCN(C(=O)[C@H](CNCCNC(=O)CNC45CCC(CN6CCN(C(=O)[C@H](NC(=O)c7cccc(C8CCCN(C(=O)CNC9CC9)C8)c7)C7CCCCC7)CC6)(CC4)OC5)c4ccc(Cl)cc4)CC3)c21 (stereo partly drawn) and write its reported pIC50.
5.00 to 5.30

Indicate its recorded pIC50; the compound in question is C=CC(=O)N1CCN(c2ccc(CCC(=O)N3CCC(CN4CCN(CC[C@H](NC(=O)C5(N)CCN(c6ncnc7[nH]ccc67)CC5)c5ccc(Cl)cc5)CC4)CC3)o2)C(=O)C1
5.30 to 6.00

Provide measured pIC50 value, entry: CC(C)(C)OC(=O)N[C@@H](C(=O)NCCCCS(=O)(=O)NCC[C@H](NC(=O)C1(N)CCN(c2ncnc3[nH]ccc23)CC1)c1ccc(Cl)cc1)C1CCCCC1
5.30 to 6.00

Provenance of the data: patent US20250171465A1
